The measured values listed here are drawn from paper PMC8151276.

Biological target: VIPR2 (Homo sapiens, UniProt P41587)
Construct: purchased Promega (in-house HiBiT-GPCR construct library, NanoBRET)
Sequence (P41587 24-438): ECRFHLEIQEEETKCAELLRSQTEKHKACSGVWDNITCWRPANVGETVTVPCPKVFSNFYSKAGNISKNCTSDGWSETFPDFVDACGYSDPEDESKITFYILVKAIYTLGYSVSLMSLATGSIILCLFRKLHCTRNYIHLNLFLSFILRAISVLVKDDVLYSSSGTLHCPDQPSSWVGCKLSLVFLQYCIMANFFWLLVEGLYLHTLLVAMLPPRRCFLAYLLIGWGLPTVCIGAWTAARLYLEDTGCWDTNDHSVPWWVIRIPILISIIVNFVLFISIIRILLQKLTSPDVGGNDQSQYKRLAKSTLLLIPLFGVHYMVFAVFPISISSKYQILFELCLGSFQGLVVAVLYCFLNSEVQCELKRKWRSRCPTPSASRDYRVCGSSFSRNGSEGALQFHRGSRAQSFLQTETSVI
Assay: NanoBRET screen HiBiT-VIPR2 in HEK293
Assay type: binding
Conditions: VIPR2; tracer 0.1μM
Protocol: Each tracer candidate was screened across the entire library of HiBiT-GPCR constructs using NanoBRET as the detection modality. As depicted in Figure 4A, the specificity of interactions was evaluated through decrease in BRET due to competitive displacement of a bound tracer by excess parental compound. Each tracer was analyzed for binding to each HiBiT-GPCR fusion in the absence and in the presence of competing parental compound. […]
QUANTITY NAME: NanoBRET Fold Response
API note: the answer field is a bare number with no unit suffix.

GET /values?readout=NanoBRET Fold Response&item= `O=C(CCOCCOCCOCCOCCNC(=O)CCc1ccc2n1[B-](F)(F)[N+]1=C(c3ccc[nH]3)C=CC1=C2)NCCCN1CCN(C2=Nc3ccccc3Oc3ccc(Cl)cc32)CC1`
1.15

And what about the molecule `N#CN=C(NCCCOc1cccc(CN2CCCCC2)c1)NCCNC(=O)CCOCCOCCOCCOCCNC(=O)CCc1ccc2n1[B-](F)(F)[N+]1=C(c3ccc[nH]3)C=CC1=C2` ?
1.01

And what about the molecule `COc1ccccc1N1CCN(CCCCN2C(=O)c3ccc(CNC(=O)CCOCCOCCOCCOCCNC(=O)CCc4ccc5n4[B-](F)(F)[N+]4=C(c6ccc[nH]6)C=CC4=C5)cc3C2=O)CC1` ?
1.05

And what about the molecule `CCCn1c(=O)c2[nH]c(-c3ccc(OCC(=O)NCCNC(=O)CCOCCNC(=O)c4ccc(CNC(=O)CCc5ccc6n5[B-](F)(F)[N+]5=C(c7ccc[nH]7)C=CC5=C6)cc4)cc3)nc2n(CCC)c1=O` ?
0.72

And what about the molecule Cc1nc2n(c(=O)c1CCN1CCC(c3noc4cc(F)ccc34)CC1)CCCC2OC(=O)NCCOCCOCCOCCOCCNC(=O)CCc1ccc2n1[B-](F)(F)[N+]1=C(c3ccc[nH]3)C=CC1=C2 (centres unmarked) ?
1.03

And what about the molecule `Cc1cc2c(s1)Nc1ccccc1N=C2N1CCN(CCCNC(=O)CCOCCOCCOCCOCCNC(=O)CCc2ccc3n2[B-](F)(F)[N+]2=C(c4ccc[nH]4)C=CC2=C3)CC1` ?
1.00

And what about the molecule `O=C(CCc1ccc2n1[B-](F)(F)[N+]1=C(c3ccc[nH]3)C=CC1=C2)NCCOCCOCCNC(=O)OCCOCCN1CCN(C2=Nc3ccccc3Sc3ccccc32)CC1` ?
0.96
